Measured values drawn from ChEMBL document CHEMBL2331515 for this set.

biological target: Mu-type opioid receptor (Homo sapiens); test: Agonist activity at FLAG-tagged mu-type opioid receptor (unknown origin) expressed in HEK293 cells assessed as inhibition of forskolin-stimulated cAMP accumulation after 30 mins by liquid scintillation counting analysis relative to DAMGO; format: functional, cell-based
Sequence (P35372 whole entry): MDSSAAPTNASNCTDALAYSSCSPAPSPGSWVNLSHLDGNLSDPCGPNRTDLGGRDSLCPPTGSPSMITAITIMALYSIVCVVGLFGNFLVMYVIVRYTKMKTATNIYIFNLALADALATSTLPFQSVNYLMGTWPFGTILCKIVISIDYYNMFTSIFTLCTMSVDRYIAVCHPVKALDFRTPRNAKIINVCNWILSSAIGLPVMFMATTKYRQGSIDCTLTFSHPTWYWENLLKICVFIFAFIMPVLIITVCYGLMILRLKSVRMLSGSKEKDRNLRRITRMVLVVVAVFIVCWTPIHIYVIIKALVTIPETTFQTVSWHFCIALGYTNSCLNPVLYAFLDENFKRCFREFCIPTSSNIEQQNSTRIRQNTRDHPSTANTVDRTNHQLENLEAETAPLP
# key: entry, value: Emax
// return the numeric value with its unit appended

Examples with their reported Emax follow.
STRUCTURE_AS_SMILES: C=C(C(N)=O)[C@@H](NC(=O)[C@H](Cc1c[nH]c2ccccc12)NC(=O)[C@@H]1CCN(C(=O)[C@@H](N)Cc2ccc(O)cc2)C1)c1ccccc1
Emax: 96.8%

STRUCTURE_AS_SMILES: C=C(C(N)=O)[C@@H](NC(=O)[C@H](Cc1c[nH]c2ccccc12)NC(=O)[C@H]1CCN(C(=O)[C@@H](N)Cc2c(C)cc(O)cc2C)C1)c1ccccc1
Emax: 97.1%

STRUCTURE_AS_SMILES: C=C(C(=O)O)[C@@H](NC(=O)[C@H](Cc1c[nH]c2ccccc12)NC(=O)[C@@H]1CCCN1C(=O)[C@@H](N)Cc1c(C)cc(O)cc1C)c1ccccc1
Emax: 97.2%

STRUCTURE_AS_SMILES: C=C(C(=O)O)[C@@H](NC(=O)[C@H](Cc1c[nH]c2ccccc12)NC(=O)[C@@H]1CCCN1C(=O)[C@@H](N)Cc1c(C)cc(O)cc1C)c1ccco1
Emax: 96.5%

STRUCTURE_AS_SMILES: C=C(C(N)=O)[C@@H](NC(=O)[C@H](Cc1c[nH]c2ccccc12)NC(=O)[C@@H]1CCN(C(=O)[C@@H](N)Cc2c(C)cc(O)cc2C)C1)c1ccccc1
Emax: 98.9%

For reference, reported Emax for C=C(C(N)=O)[C@@H](NC(=O)[C@H](Cc1c[nH]c2ccccc12)NC(=O)[C@H]1CCN(C(=O)[C@@H](N)Cc2ccc(O)cc2)C1)c1ccccc1 stands at 95.5%

For reference, reported Emax for C=C(C(N)=O)[C@@H](NC(=O)[C@H](Cc1c[nH]c2ccccc12)NC(=O)[C@H]1CCN(C(=O)[C@@H](N)Cc2ccc(O)cc2)C1)c1ccco1 stands at 94.9%

---

# key: entry, value: Ratio Ki
organism: Homo sapiens; test: Selectivity ratio of Ki for Myc-tagged delta-type opioid receptor (unknown origin) to Ki for FLAG-tagged mu-type opioid receptor (unknown origin)
Provide a numeric answer; units are not to be included.

STRUCTURE_AS_SMILES: C=C(C(N)=O)[C@@H](NC(=O)[C@H](Cc1c[nH]c2ccccc12)NC(=O)[C@@H]1CCN(C(=O)[C@@H](N)Cc2c(C)cc(O)cc2C)C1)c1ccco1
MEASURED_RESULT: 5320
//
STRUCTURE_AS_SMILES: C=C(C(N)=O)[C@@H](NC(=O)[C@H](Cc1c[nH]c2ccccc12)NC(=O)[C@@H]1CCN(C(=O)[C@@H](N)Cc2c(C)cc(O)cc2C)C1)c1ccccc1
MEASURED_RESULT: 2770
//
STRUCTURE_AS_SMILES: C=C(C(N)=O)[C@@H](NC(=O)[C@H](Cc1c[nH]c2ccccc12)NC(=O)[C@H]1CCN(C(=O)[C@@H](N)Cc2ccc(O)cc2)C1)c1ccccc1
MEASURED_RESULT: 9720
//
STRUCTURE_AS_SMILES: C=C(C(N)=O)[C@@H](NC(=O)[C@H](Cc1c[nH]c2ccccc12)NC(=O)[C@H]1CCN(C(=O)[C@@H](N)Cc2c(C)cc(O)cc2C)C1)c1ccccc1
MEASURED_RESULT: 1380
//
STRUCTURE_AS_SMILES: C=C(C(=O)O)[C@@H](NC(=O)[C@H](Cc1c[nH]c2ccccc12)NC(=O)[C@@H]1CCCN1C(=O)[C@@H](N)Cc1c(C)cc(O)cc1C)c1ccccc1
MEASURED_RESULT: 795

For reference, reported Ratio Ki for C=C(C(N)=O)[C@@H](NC(=O)[C@H](Cc1c[nH]c2ccccc12)NC(=O)[C@@H]1CCN(C(=O)[C@@H](N)Cc2ccc(O)cc2)C1)c1ccco1 stands at 16800

---

target: Mu-type opioid receptor (Mus musculus, UniProt P42866); experiment: Agonist activity at mu-type opioid receptor in Kunming mouse vas deferens assessed as inhibition of electrically evoked muscle contraction
Sequence (P42866 whole entry): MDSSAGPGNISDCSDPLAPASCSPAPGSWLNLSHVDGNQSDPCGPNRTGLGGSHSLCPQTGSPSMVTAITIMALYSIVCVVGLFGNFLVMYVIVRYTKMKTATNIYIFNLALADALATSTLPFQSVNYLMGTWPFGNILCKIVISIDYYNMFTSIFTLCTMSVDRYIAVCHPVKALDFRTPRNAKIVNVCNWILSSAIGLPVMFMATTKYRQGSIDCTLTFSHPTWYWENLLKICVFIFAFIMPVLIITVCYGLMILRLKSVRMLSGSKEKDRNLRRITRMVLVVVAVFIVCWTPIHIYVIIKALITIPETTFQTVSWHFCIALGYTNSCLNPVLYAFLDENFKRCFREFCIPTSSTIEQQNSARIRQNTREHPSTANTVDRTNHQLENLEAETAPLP
pIC50: −log10 of the molar value.
Parameter threshold = 9. Response is Condition met when pIC50 meets or exceeds it, else Condition not met.

Solved entries:
STRUCTURE_AS_SMILES: C=C(C(N)=O)[C@@H](NC(=O)[C@H](Cc1c[nH]c2ccccc12)NC(=O)[C@H]1CCN(C(=O)[C@@H](N)Cc2ccc(O)cc2)C1)c1ccco1
CATEGORY: Condition not met
--
STRUCTURE_AS_SMILES: C=C(C(N)=O)[C@@H](NC(=O)[C@H](Cc1c[nH]c2ccccc12)NC(=O)[C@@H]1CCN(C(=O)[C@@H](N)Cc2ccc(O)cc2)C1)c1ccccc1
CATEGORY: Condition not met
--
STRUCTURE_AS_SMILES: C=C(C(N)=O)[C@@H](NC(=O)[C@H](Cc1c[nH]c2ccccc12)NC(=O)[C@H]1CCN(C(=O)[C@@H](N)Cc2ccc(O)cc2)C1)c1ccccc1
CATEGORY: Condition not met

Is reported pIC50 greater than or equal to 9 here: C=C(C(N)=O)[C@@H](NC(=O)[C@H](Cc1c[nH]c2ccccc12)NC(=O)[C@@H]1CCN(C(=O)[C@@H](N)Cc2c(C)cc(O)cc2C)C1)c1ccccc1
Condition met

---

molecular target: Delta-type opioid receptor (Homo sapiens); assay: Displacement of [3H]DPDPE from Myc-tagged delta-type opioid receptor (unknown origin) expressed in HEK293 cells after 60 mins by liquid scintillation counting analysis
Sequence (P41143 whole entry): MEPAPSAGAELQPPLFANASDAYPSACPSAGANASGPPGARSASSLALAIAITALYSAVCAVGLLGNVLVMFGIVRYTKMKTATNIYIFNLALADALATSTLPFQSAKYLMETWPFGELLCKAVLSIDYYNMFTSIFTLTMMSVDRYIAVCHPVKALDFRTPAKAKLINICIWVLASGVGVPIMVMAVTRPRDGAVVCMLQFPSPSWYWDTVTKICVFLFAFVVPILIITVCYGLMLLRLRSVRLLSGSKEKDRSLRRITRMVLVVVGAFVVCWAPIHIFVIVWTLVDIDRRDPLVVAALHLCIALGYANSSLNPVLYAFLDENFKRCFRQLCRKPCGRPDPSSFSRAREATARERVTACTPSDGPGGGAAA
REPORTED_METRIC: Ki (nM)
Numeric answer only, unit nM assumed.

Examples with their reported Ki follow.
STRUCTURE_AS_SMILES: C=C(C(N)=O)[C@@H](NC(=O)[C@H](Cc1c[nH]c2ccccc12)NC(=O)[C@@H]1CCN(C(=O)[C@@H](N)Cc2ccc(O)cc2)C1)c1ccccc1
TGT: Delta-type opioid receptor (Homo sapiens)
Ki / nM: 2810

STRUCTURE_AS_SMILES: C=C(C(=O)O)[C@@H](NC(=O)[C@H](Cc1c[nH]c2ccccc12)NC(=O)[C@@H]1CCCN1C(=O)[C@@H](N)Cc1c(C)cc(O)cc1C)c1ccco1
TGT: Delta-type opioid receptor (Homo sapiens)
Ki / nM: 22.2

STRUCTURE_AS_SMILES: C=C(C(=O)O)[C@@H](NC(=O)[C@H](Cc1c[nH]c2ccccc12)NC(=O)[C@@H]1CCCN1C(=O)[C@@H](N)Cc1c(C)cc(O)cc1C)c1ccccc1
TGT: Delta-type opioid receptor (Homo sapiens)
Ki / nM: 25.6

STRUCTURE_AS_SMILES: C=C(C(N)=O)[C@@H](NC(=O)[C@H](Cc1c[nH]c2ccccc12)NC(=O)[C@H]1CCN(C(=O)[C@@H](N)Cc2ccc(O)cc2)C1)c1ccccc1
TGT: Delta-type opioid receptor (Homo sapiens)
Ki / nM: 5580

STRUCTURE_AS_SMILES: C=C(C(N)=O)[C@@H](NC(=O)[C@H](Cc1c[nH]c2ccccc12)NC(=O)[C@H]1CCN(C(=O)[C@@H](N)Cc2c(C)cc(O)cc2C)C1)c1ccccc1
TGT: Delta-type opioid receptor (Homo sapiens)
Ki / nM: 18.9

// returns Ki for C=C(C(N)=O)[C@@H](NC(=O)[C@H](Cc1c[nH]c2ccccc12)NC(=O)[C@@H]1CCN(C(=O)[C@@H](N)Cc2ccc(O)cc2)C1)c1ccco1 with Delta-type opioid receptor (Homo sapiens); value = 2780

// returns Ki for C=C(C(N)=O)[C@@H](NC(=O)[C@H](Cc1c[nH]c2ccccc12)NC(=O)[C@H]1CCN(C(=O)[C@@H](N)Cc2c(C)cc(O)cc2C)C1)c1ccco1 with Delta-type opioid receptor (Homo sapiens); value = 30.4

// returns Ki for C=C(C(N)=O)[C@@H](NC(=O)[C@H](Cc1c[nH]c2ccccc12)NC(=O)[C@@H]1CCN(C(=O)[C@@H](N)Cc2c(C)cc(O)cc2C)C1)c1ccco1 with Delta-type opioid receptor (Homo sapiens); value = 19.8

// returns Ki for C=C(C(N)=O)[C@@H](NC(=O)[C@H](Cc1c[nH]c2ccccc12)NC(=O)[C@@H]1CCN(C(=O)[C@@H](N)Cc2c(C)cc(O)cc2C)C1)c1ccccc1 with Delta-type opioid receptor (Homo sapiens); value = 27.3

// returns Ki for C=C(C(N)=O)[C@@H](NC(=O)[C@H](Cc1c[nH]c2ccccc12)NC(=O)[C@H]1CCN(C(=O)[C@@H](N)Cc2ccc(O)cc2)C1)c1ccco1 with Delta-type opioid receptor (Homo sapiens); value = 6950

---

target: Mu-type opioid receptor (Homo sapiens); assay: Agonist activity at FLAG-tagged mu-type opioid receptor (unknown origin) expressed in HEK293 cells assessed as inhibition of forskolin-stimulated cAMP accumulation after 30 mins by liquid scintillation counting analysis
# key: entry, value: pEC50
For clarity, pEC50 is expressed as the negative log10 of concentration in mol/L.

Examples with their reported pEC50 follow.
STRUCTURE_AS_SMILES: C=C(C(N)=O)[C@@H](NC(=O)[C@H](Cc1c[nH]c2ccccc12)NC(=O)[C@H]1CCN(C(=O)[C@@H](N)Cc2c(C)cc(O)cc2C)C1)c1ccco1
TGT: Mu-type opioid receptor (Homo sapiens)
pEC50: 12.96
//
STRUCTURE_AS_SMILES: C=C(C(N)=O)[C@@H](NC(=O)[C@H](Cc1c[nH]c2ccccc12)NC(=O)[C@@H]1CCN(C(=O)[C@@H](N)Cc2ccc(O)cc2)C1)c1ccco1
TGT: Mu-type opioid receptor (Homo sapiens)
pEC50: 11.07

Shifting focus to the compound that follows.
// returns pEC50 for C=C(C(=O)O)[C@@H](NC(=O)[C@H](Cc1c[nH]c2ccccc12)NC(=O)[C@@H]1CCCN1C(=O)[C@@H](N)Cc1c(C)cc(O)cc1C)c1ccco1 with Mu-type opioid receptor (Homo sapiens); value = 12.29
